Test system: MS2 coat protein
Assay Details: apparent Kd, MS2 coat protein; higher = weaker binding; RNA-MaP array; FMN 200 µM where present
Condition Set: designed as: OFF switch for flavin mononucleotide; no ligand
Measured Metric: apparent Kd

See these solved cases before continuing.
UCGAACUUUCGUGUAAUUCGCACAUGAGGAUCACCCAUGUACGAGGAUAUGUACCUAAACGGCUAACAGAAGGCGUACUGGGCA = 170 nM
ACACGGUAUGUAGGAUAUGCAUAGCAUUGCUAUGCAGAAGGACAUGAGGAUCACCCAUGUAUGUAUUCCAUACUAAUCCCGUGA = 5.78 nM
CCGCCAAUCGAGAAGGGCCCAUGUGCUACGUCGGCAGGAUAUCGACAUGAGGAUCACCCAUGUUGGCGAUCCUUUUUGGCGAAC = 149 nM

Request the reported apparent Kd associated with GUUUCGUGAGGAUAUGUGGCUUCGAUCGUGCGAACGAGGCUACAGAAGGCACAUGAGGAUCACCCAUGUUCCUC
37.4 nM

Likewise for CAUUAUUAUCGAGGAUAUCGUAUUGAGAUACUAUGAGAAGGCGGGAUAAACAUGAGGAUCACCCAUGUGAGCCGGAUGCUUGUG ?
17.1 nM

Also need CCUUUGAAGAUCCUAAAUUUCGACAUGAGGAUCACCCAUGUGCAGGAUAUCGUGCCAGUGAUGUACGAGAAGGGCCGUCUCUGC , thanks.
160 nM

// query: GUCAGCUCGUGAGGAUAUACAGCACUGCUUCGGCAGUGUAUUAAGAUCACAUGAGGAUCACCCAUGUAGAAGGCACGAGCUGAU
28.1 nM

----------
Test system: MS2 coat protein
Assay Details: apparent Kd, MS2 coat protein; higher = weaker binding; RNA-MaP array
Condition Set: designed as: ON switch for flavin mononucleotide; no ligand
Measured Metric: apparent Kd
Mention the unit after the number when you answer.

Look over these answered cases.
UACAUGAGGAUCACCCAUGUUAACGCUUAGAUGCAUCGACGUGAGGAUAUCGGGUUAAACCAGCACGAGAAGGCACAUCCAGAU = 34.5 nM
GUGGGCCGGGUAGGAUAUCGACAUGAGGAUCACCCAUGUGUGAGUUGAUGAACUCACGGAUAGCCCGAGAAGGACCUCAGGGCU = 17.9 nM
AUGGGUACCACAGGAUAUUAGUAACACAUGAGGAUCACCCAUGUUUUACCGCUUGAAGCUUAGACUAAGAAGGGUGGCUUAGAA = 55.1 nM
GCUACACAUGAGGAUCACCCAUGUAUGCAUAGACGAGGAUAUAGACCACCUCCCGGGAUACUAGAAGGCGUGAUAU = 19.3 nM
UCGAGUAAGGAGAAGGACUAAUGGACUCACAAAGUAGGAUAUCCUGAACAUGAGGAUCACCCAUGUUGAUGUAACAUGUACUGG = 118 nM
CGGUGAUUCGUAGGAUAUGUAUGAAGCUAGAGAACAGAAGGACGUCGCUACAAAAUUCAAAAUUACAUGAGGAUCACCCAUGUA = 25.2 nM
UUUAUUCUCUAUACAUGAGGAUCACCCAUGUCAAUGAUGUGCAGAAGGUGGUUCGGCUGUGACUCCAAGGAUAUGCAGAGAAUU = 513 nM
ACAACUCUCACAGGAUAUUGACAUGAGGAUCACCCAUGUAAUCCAGGGCGAACAUAGGACUGACACAAGAAGGGUGACACCAUC = 20.1 nM
AAUGAGGCCUCUCAACAUGAGGAUCACCCAUGUAACGGAACAAAGGAUAUGGUCCAACUACUAACCCAGAAGGUUGUGACAGAA = 49.1 nM
UUGGUUGCAUAGAAGGUGAGAUAGGAUCUACAUGAGGAUCACCCAUGUGUUAUCCCAAUUAGAAUCAAGGAUAUAUUGGCUUAU = 19.1 nM

Record request: apparent Kd value, item AAAUCUAACGAGAAGGGAGUGGCCGGCCACUUAGCAGACAUGAGGAUCACCCAUGUGAAGAUCACUCAGGAUAUCGAUAAUCCA
24.9 nM

Okay, and CGACUAACGUGAGGAUAUAGUCCGGAAAGACAUUUUCGUCAAGACAUGAGGAUCACCCAUGUCCUCUAGAAGGCACUCGGAACA ?
45.1 nM

Try ACGUGGCAACAUGAGGAUCACCCAUGUAAAGAUAAUGAUUACAGAAGGCCCGGAGGAAGGCAAAGGGAGGAUAUGUGUGCCUAC next.
29.8 nM

What about this sequence? UGGUUUGUCCAUACAUGAGGAUCACCCAUGUAACACUGGCCCAGAAGGCGAAAAUGGCAGCCAGUCGAGGAUAUGGGCUGUAUG
59.7 nM
